Entries and their half-life at 20 µM
- protocol text: Half life in simulated gastric fluid at 20 uM by LC-MS/MS analysis
- Assay type: ADME

Worked examples, 2 compounds total:
CC(=O)N[C@H]1CCSC[C@@H](C(=O)N[C@@H](Cc2ccc(OCCN)cc2)C(=O)N[C@@H](Cc2c[nH]c3ccccc23)C(=O)N[C@@](C)(CC(C)C)C(=O)N[C@@H](CCC(=O)O)C(=O)N[C@@H](CC(N)=O)C(=O)NCC(N)=O)NC(=O)[C@H](CCC(N)=O)NC(=O)[C@H](Cc2c[nH]c3ccccc23)NC(=O)[C@H]([C@@H](C)O)NC(=O)[C@H](CCC(N)=O)NC1=O | 3 to 6 h
CC(=O)NCCCC[C@H](NC(=O)[C@](C)(CC(C)C)NC(=O)[C@H](Cc1ccc2ccccc2c1)NC(=O)[C@H](Cc1ccc(OCCNC(C)=O)cc1)NC(=O)[C@@H](NC(=O)[C@H](CCC(N)=O)NC(=O)[C@H](Cc1c[nH]c2ccccc12)NC(=O)[C@@H](NC(=O)[C@H](CCC(N)=O)NC(=O)[C@@H](NC(C)=O)C(C)(C)S)[C@@H](C)O)C(C)(C)S)C(=O)N[C@@H](CC(N)=O)C(=O)N[C@@H](CC(N)=O)C(N)=O | > 6 h

Fill in: half-life at 20 µM of `CC(=O)N[C@H](CCC(=O)O)C(=O)N[C@H]1CCSC[C@@H](C(=O)N[C@@H](Cc2ccc(OCCN)cc2)C(=O)N[C@@H](Cc2ccc3ccccc3c2)C(=O)N[C@@](C)(CCCCN)C(=O)N[C@@H](CCC(=O)O)C(=O)N[C@@H](CC(N)=O)C(=O)N[C@@H](CC(N)=O)C(N)=O)NC(=O)[C@H](CCC(N)=O)NC(=O)[C@H](Cc2c[nH]c3ccccc23)NC(=O)[C@H]([C@@H](C)O)NC(=O)[C@H](CCC(N)=O)NC1=O` is ___ 1 to 2 h

* * *

Entries and their IC50
- tested system: UniProt Q5VWK5
- Sequence (Q5VWK5 whole entry): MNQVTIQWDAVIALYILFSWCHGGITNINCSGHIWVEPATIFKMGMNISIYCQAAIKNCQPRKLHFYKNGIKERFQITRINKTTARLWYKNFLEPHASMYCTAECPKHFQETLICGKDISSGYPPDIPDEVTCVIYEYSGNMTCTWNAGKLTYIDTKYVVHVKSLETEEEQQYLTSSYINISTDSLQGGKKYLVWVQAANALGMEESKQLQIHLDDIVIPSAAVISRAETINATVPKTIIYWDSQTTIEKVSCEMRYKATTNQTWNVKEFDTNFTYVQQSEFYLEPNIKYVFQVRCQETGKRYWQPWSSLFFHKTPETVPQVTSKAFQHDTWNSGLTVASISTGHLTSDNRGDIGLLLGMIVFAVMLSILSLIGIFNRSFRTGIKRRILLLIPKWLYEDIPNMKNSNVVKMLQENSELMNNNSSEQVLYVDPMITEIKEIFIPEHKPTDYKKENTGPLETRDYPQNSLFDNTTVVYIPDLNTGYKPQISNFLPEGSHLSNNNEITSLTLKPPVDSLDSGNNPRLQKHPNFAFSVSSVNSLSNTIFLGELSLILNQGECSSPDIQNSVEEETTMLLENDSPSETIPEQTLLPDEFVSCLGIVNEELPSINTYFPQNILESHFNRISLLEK
- protocol text: Inhibition of interleukin-23 binding to human interleukin-23 receptor incubated for 2 hrs by competitive binding ELISA

CC[C@](C)(NC(=O)[C@H](Cc1ccc2ccccc2c1)NC(=O)[C@H](Cc1ccc(OCCN)cc1)NC(=O)[C@@H]1CSCC[C@H](NC(C)=O)C(=O)N[C@@H](CCC(N)=O)C(=O)N[C@@H]([C@@H](C)O)C(=O)N[C@@H](Cc2c[nH]c3ccccc23)C(=O)N[C@@H](CCC(N)=O)C(=O)N1)C(=O)N[C@@H](CCCCNC(C)=O)C(=O)N[C@@H](CC(N)=O)C(=O)NCC(N)=O | < 0.01 µM

Would you kindly look at the next entry?
Fill in: IC50 of `CC(=O)NCCCC[C@H](NC(=O)C(C)(C)NC(=O)[C@H](Cc1ccc2ccccc2c1)NC(=O)[C@H](Cc1ccc(OCCN)cc1)NC(=O)[C@@H](NC(=O)[C@H](CCC(N)=O)NC(=O)[C@H](Cc1c[nH]c2ccccc12)NC(=O)[C@@H](NC(=O)[C@H](CCC(N)=O)NC(=O)[C@@H](NC(C)=O)C(C)(C)S)[C@@H](C)O)C(C)(C)S)C(=O)N[C@@H](CC(N)=O)C(=O)N[C@@H](CCC(N)=O)C(N)=O` is ___ < 0.01 µM
